In this section, each of the compounds is paired with its reported melting point.

Some compounds with known melting point results, for comparison:
>>> df
                                   compound  recorded_value
0  N#CC(CCSC(F)(F)F)S(=O)(=O)Cn1ccc(C(F)(F)F)n1 (centres unmarked)     65 to 67 °C
1  CC(C#N)(CCSC(F)(F)F)S(=O)(=O)Cc1cccc(C(F)(F)F)c1 (centres unmarked)     92 to 94 °C
2  CC(C#N)(CCSC(F)(F)F)S(=O)(=O)Cc1ccc(C(F)(F)F)nc1 (centres unmarked)   109 to 110 °C

query: // lookup melting point for CC(C#N)(CCSC(F)(F)F)S(=O)(=O)Cc1ccc(C(F)(F)F)cc1 (centres unmarked)
result: 102 to 104 °C

###

system: Aedes aegypti; test: Aedes aegypti neonate larvae motility assay; assay type: in vivo; details: larval motility, dose response
Listed next: entries and their corresponding EC50.

                                   molecule  reported_property  recorded_value
0  N#CC(CCSC(F)(F)F)S(=O)(=O)CCC(F)(F)C(F)(F)F (stereo not drawn)               EC50       < 5 µg/mL
1  N#CC(CCSC(F)(F)F)SCCC(F)(F)C(F)(F)F (stereo not drawn)               EC50       < 5 µg/mL
2  CN(C)C(=O)C(C)(CCSC(F)(F)F)S(=O)(=O)CCC(F)(F)C(F)(F)F (stereo not drawn)               EC50       < 5 µg/mL
3  CCOC(=O)C(C)(CCSC(F)(F)F)S(=O)(=O)CCC(F)(F)C(F)(F)F (stereo not drawn)               EC50       < 5 µg/mL
4  CCOC(=O)C(CCSC(F)(F)F)S(=O)(=O)CCC(F)(F)C(F)(F)F (stereo not drawn)               EC50       < 5 µg/mL

query: Name the reported EC50 value associated with the molecule CC(C#N)(CCSC(F)(F)F)S(=O)(=O)Cc1cccc(C(F)(F)F)c1 (stereo not drawn)
result: < 5 µg/mL

query: Can you look up the measured EC50 of N#CC(CCSC(F)(F)F)S(=O)(=O)Cc1cccc(C(F)(F)F)c1 (stereo not drawn) for me?
result: < 5 µg/mL

query: I have this molecule here, CCCC(C#N)(CCSC(F)(F)F)S(=O)(=O)CCC(F)(F)C(F)(F)F (stereo not drawn) , and I need its recorded EC50.
result: < 5 µg/mL

query: Please give the measured EC50 for this molecule: CCC(C#N)(CCSC(F)(F)F)S(=O)(=O)CCC(F)(F)C(F)(F)F (stereo not drawn)
result: < 5 µg/mL

###

Listed next: entries and their corresponding mortality at 2500 ppm.
tested on: Ceratitis capitata; assay: Mediterranean fruitfly (Ceratitis capitata) diet/egg test; assay type: in vivo; details: 120 h, 2500 ppm, egg and larval mortality, 5 days, read-out: mortality in comparison with untreated controls

Some entries whose results are on file:
                                   compound      reported_property  recorded_value
0  N#CC(CCSC(F)(F)F)[S+]([O-])CCC(F)(F)C(F)(F)F (stereo not drawn)  mortality at 2500 ppm           > 90%
1  CC(CCSC(F)(F)F)(C(N)=O)S(=O)(=O)CCC(F)(F)C(F)(F)F (stereo not drawn)  mortality at 2500 ppm           > 90%
2  CC(CCSC(F)(F)F)(C(N)=S)S(=O)(=O)CCC(F)(F)C(F)(F)F (stereo not drawn)  mortality at 2500 ppm           > 90%
3  CNC(=O)C(C)(CCSC(F)(F)F)S(=O)(=O)CCC(F)(F)C(F)(F)F (stereo not drawn)  mortality at 2500 ppm           > 90%
4  CN(C)C(=O)C(C)(CCSC(F)(F)F)S(=O)(=O)CCC(F)(F)C(F)(F)F (stereo not drawn)  mortality at 2500 ppm           > 90%

query: // returns reported mortality at 2500 ppm for input CCOC(=O)C(C)(CCSC(F)(F)F)S(=O)(=O)CCC(F)(F)C(F)(F)F (stereo not drawn)
result: > 90%

query: Reported mortality at 2500 ppm, compound N#CC(CCSC(F)(F)F)SCCC(F)(F)C(F)(F)F (stereo not drawn) : ____
result: > 90%

query: Sample N#CC(CCSC(F)(F)F)S(=O)(=O)CCC(F)(F)C(F)(F)F (stereo not drawn) — what was its mortality at 2500 ppm?
result: > 90%

query: Quick check: mortality at 2500 ppm of CCOC(=O)C(CCSC(F)(F)F)S(=O)(=O)CCC(F)(F)C(F)(F)F (stereo not drawn) ?
result: > 90%

###

reported-property: melting point

                                   molecule  recorded_value
0  N#CC(CCSC(F)(F)F)S(=O)(=O)Cc1cccc(C(F)(F)F)c1 (stereo not shown)   100 to 102 °C
1  N#CC(CCSC(F)(F)F)S(=O)(=O)Cc1ccc(Cl)nc1 (stereo not shown)   122 to 124 °C
2  N#CC(CCSC(F)(F)F)S(=O)(=O)Cc1ccc(C(F)(F)F)nc1 (stereo not shown)   129 to 130 °C

Consider the record given below.
query: If you can, please state the reported melting point value of N#CC(CCSC(F)(F)F)S(=O)(=O)Cc1ccc(C(F)(F)F)cc1 (stereo not shown) .
result: 153 to 155 °C

###

system: Ceratitis capitata; experiment: Mediterranean fruitfly (Ceratitis capitata) diet/egg test; format: in vivo; details: 120 h, 2500 ppm, egg and larval mortality, 5 days, read-out: mortality in comparison with untreated controls
Reported mortality at 2500 ppm values for a set of molecules

Example entries and their recorded answers appear below.
>>> print(df.to_string())
                                   molecule      reported_property  recorded_value
0  CC(C#N)(CCSC(F)(F)F)S(=O)(=O)Cn1ccc(C(F)(F)F)n1 (stereo not drawn)  mortality at 2500 ppm           > 90%
1  CCC(C#N)(CCSC(F)(F)F)S(=O)(=O)CCC(F)(F)C(F)(F)F (stereo not drawn)  mortality at 2500 ppm           > 90%

# context switch: different molecule, same mortality at 2500 ppm
query: Would you mind telling me what mortality at 2500 ppm value was observed for CCCC(C#N)(CCSC(F)(F)F)S(=O)(=O)CCC(F)(F)C(F)(F)F (stereo not drawn) ?
result: > 90%
